Tested On: Sphingosine 1-phosphate receptor 3 (Homo sapiens)
Sequence (Q99500 whole entry): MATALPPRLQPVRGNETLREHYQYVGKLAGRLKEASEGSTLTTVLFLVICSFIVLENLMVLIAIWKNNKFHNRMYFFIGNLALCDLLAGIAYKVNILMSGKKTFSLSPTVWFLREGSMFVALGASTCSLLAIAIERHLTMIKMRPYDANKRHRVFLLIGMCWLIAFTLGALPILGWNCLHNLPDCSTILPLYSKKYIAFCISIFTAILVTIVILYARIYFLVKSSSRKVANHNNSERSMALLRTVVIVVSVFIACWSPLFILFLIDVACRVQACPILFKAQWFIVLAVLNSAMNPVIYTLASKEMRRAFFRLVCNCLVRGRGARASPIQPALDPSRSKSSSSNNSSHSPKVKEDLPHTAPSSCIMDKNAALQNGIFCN
Assay Details: Antagonist activity against human S1P3 receptor assessed as inhibition of S1P-induced intracellular calcium mobilization in CHO-K1 cells
Type: functional, cell-based
Mark Y only when IC50 stays strictly below 5 µM. Values equal to the cut-off are N.

Worked set:
>  <Compound>
CCCCCCCCCCCCCCCCOc1ccc(/C(=N/NS(=O)(=O)c2cc(C(=O)O)cc(C(=O)O)c2)N2CCCCC2)cc1OC

>  <Tested On>
Sphingosine 1-phosphate receptor 3 (Homo sapiens)

>  <Class Label>
Y

$$$$
>  <Compound>
CCCCCCCCCCCC1N[C@H](C(=O)O)CS1 (stereo partly drawn)

>  <Tested On>
Sphingosine 1-phosphate receptor 3 (Homo sapiens)

>  <Class Label>
N

$$$$
>  <Compound>
CCCCCCCCCCCCCCCCOc1ccc(/C(=N/NS(=O)(=O)c2cc(C(=O)O)cc(C(=O)O)c2)c2ccccc2)cc1

>  <Tested On>
Sphingosine 1-phosphate receptor 3 (Homo sapiens)

>  <Class Label>
N

$$$$
>  <Compound>
CCCCCCCCCCCCCCCCOc1ccc(/C(=N/NS(=O)(=O)c2cc(C(=O)O)cc(C(=O)O)c2)c2ccccc2)cc1OC

>  <Tested On>
Sphingosine 1-phosphate receptor 3 (Homo sapiens)

>  <Class Label>
Y

$$$$
>  <Compound>
CCCCCCCCCc1cccc(C2N[C@H](C(=O)O)CS2)c1 (stereo partly drawn)

>  <Tested On>
Sphingosine 1-phosphate receptor 3 (Homo sapiens)

>  <Class Label>
N

$$$$

Prompt: Is 5 µM strictly greater than the compound's reported IC50? compound: CCCCCCCCCCCCCCCCCC(=O)Nc1ccc(C(=O)CC(=O)Cc2cc(C(=O)O)ccc2Oc2cc(C(=O)O)cc(C(=O)O)c2)cc1
Response: Y

Prompt: Also, CCCCCCCCCCCCCCCCCNc1ccc(C(=O)CC(=O)Cc2cc(C(=O)O)ccc2Oc2cc(C(=O)O)cc(C(=O)O)c2)cc1 please.
Response: Y

Prompt: Also, COc1ccc(C2N[C@H](C(=O)O)CS2)cc1COc1c(C)cc(Cl)cc1C(C)C (stereo partly drawn) please.
Response: N

---

Tested On: Sphingosine 1-phosphate receptor 1 (Homo sapiens, UniProt P21453)
Sequence (P21453 whole entry): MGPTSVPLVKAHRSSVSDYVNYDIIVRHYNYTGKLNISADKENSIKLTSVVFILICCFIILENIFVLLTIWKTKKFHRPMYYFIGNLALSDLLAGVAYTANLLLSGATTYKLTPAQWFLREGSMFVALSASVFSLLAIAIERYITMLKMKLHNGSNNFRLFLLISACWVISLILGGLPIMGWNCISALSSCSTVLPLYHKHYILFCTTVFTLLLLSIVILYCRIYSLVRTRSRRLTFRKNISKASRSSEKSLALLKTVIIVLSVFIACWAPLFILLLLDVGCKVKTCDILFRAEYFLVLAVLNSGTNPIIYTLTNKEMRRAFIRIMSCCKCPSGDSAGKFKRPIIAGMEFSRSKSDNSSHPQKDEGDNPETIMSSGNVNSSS
Assay Details: Antagonist activity against human S1P1 receptor assessed as inhibition of S1P-induced intracellular calcium mobilization in CHO-K1 cells
# IC50 per entry
Write the number in µM without appending the unit.

>  <Item Smiles>
CCCCCCCCCCCCCCCCOc1ccc(/C(=N\NS(=O)(=O)c2cc(C(=O)O)cc(C(=O)O)c2)c2ccccc2)cc1OC

>  <Experimental Result>
4.28

$$$$
>  <Item Smiles>
CCCCCCCCCCCCCCCCOc1ccc(/C(=N/NS(=O)(=O)c2cc(C(=O)O)cc(C(=O)O)c2)N2CCCCC2)cc1OC

>  <Experimental Result>
6.18

$$$$

Next:
Prompt: IC50 lookup needed for CCCCCCCCCCCCCCCCOc1ccc(/C(=N/NS(=O)(=O)c2cc(C(=O)O)cc(C(=O)O)c2)c2ccccc2)cc1OC , thanks.
Response: 6.64

---

Tested On: Sphingosine 1-phosphate receptor 1 (Homo sapiens)
Assay Details: Activity at human S1P1 receptor assessed as inhibition of S1P-induced intracellular calcium mobilization in CHO-K1 cells at 10 uM
Format: functional, cell-based
Quantity Name: inhibition (%)
Write the number in % without appending the unit.

Worked cases, inhibition given:
>  <Item Smiles>
CCCCCCCCCCCCCCCCOc1ccc(/C(=N\NS(=O)(=O)c2cccc(C(=O)O)c2)c2ccccc2)cc1OC

>  <inhibition, %>
1

$$$$
>  <Item Smiles>
CCCCCCCCCCCCCCCCOc1ccc(/C(=N/NS(=O)(=O)c2cc(C(=O)O)cc(C(=O)O)c2)c2ccccc2)cc1

>  <inhibition, %>
17.2

$$$$
>  <Item Smiles>
CCCCCCCCOc1ccc(/C(=N/NS(=O)(=O)c2cc(C(=O)O)cc(C(=O)O)c2)c2ccccc2)cc1OC

>  <inhibition, %>
12.7

$$$$
>  <Item Smiles>
CCCCOc1ccc(/C(=N/NS(=O)(=O)c2cc(C(=O)O)cc(C(=O)O)c2)c2ccccc2)cc1OC

>  <inhibition, %>
24.2

$$$$
>  <Item Smiles>
CCCCCCCCCCCCCCCCOc1ccc(/C(=N/NS(=O)(=O)c2cccc(C(=O)O)c2)c2ccccc2)cc1OC

>  <inhibition, %>
34.8

$$$$

Next:
Prompt: inhibition lookup needed for CCCCCCCCOc1ccc(/C(=N\NS(=O)(=O)c2cc(C(=O)O)cc(C(=O)O)c2)c2ccccc2)cc1OC , thanks.
Response: 32.9
